Tested on: Plasmodium berghei
Protocol Description: Screen against P. berghei liver stage (PbLuc), transformed with Luciferase, at 10uM
Assay type: functional, HepG2
Measurement Context: tested at 10 uM
In all, about 69,000 compounds went through this assay and about 8,600 (12%) showed an effect of 50% or more. The sample as a whole holds a higher share of strong results than the screen did.
Please go through the items and note down their INHIBITION.
Give bare numbers, in %.

Sample records with INHIBITION:
• CNC(=O)COc1cccc(CNC(=O)c2c(C)noc2C(C)C)c1 = 37.4
• Cc1nccn1[C@@H]1CC[C@@H](NC(=O)CCOc2ccccc2)[C@H]1O = 21.7
• CC(C)c1nc(-c2ccc(=O)[nH]n2)n(-c2ccc3c(c2)OCO3)n1 = 25.5
• O=C(NCC1CC1)c1cc(C2CC2)nc2onc(C3CCCNC3)c12 (stereo not drawn) = -3.11
• O=C1NCCCC12CCN(Cc1ccc(SC3CCCCC3)o1)C2 (stereo not drawn) = 72.3
• CCN(Cc1cnn(C)c1)S(=O)(=O)N1CCCC1c1ccco1 (stereo not drawn) = 27.5
• COc1ccc(CC(=O)N2CC[C@@H]3[C@H](CC2)N(C)CCS3(=O)=O)cc1 = 18.5
• Cn1cc(CN2CCCC3(CCN3S(C)(=O)=O)C2)cn1 (stereo not drawn) = 28.7
• CCc1nnsc1-c1nc(C(C)C)nn1-c1ccc2c(c1)OCO2 = 12.4
• Cc1ccc(Sc2ccc(CN3CCC4(CCCNC4=O)C3)o2)cc1 (stereo not drawn) = 90.8

Would you mind listing INHIBITION for each of the following compounds?
1. O=C(NCCCn1nc2ccccn2c1=O)NCc1ccccc1
2. CSc1nsc(NC(=O)c2cc(C3CC3)nn2C)n1
3. COc1ccc([C@@H]2CN(Cc3cccnc3N)C[C@H]2N(C)C)cc1

**A:**
1: -9.76; 2: -64.85; 3: 30.3

Field: INHIBITION. Fill in for each record below.
1. Cc1nonc1-c1nc(C(C)C)nn1-c1ccc2c(c1)OCO2
2. Cc1noc(CCNC(=O)NCC(=O)NCc2ccccc2)n1
3. NC(=O)c1cnc2n1CCN(C(=O)c1ccc(-c3cc[nH]n3)cc1)C2

**A:**
1: 82; 2: -176; 3: 11.7

Return reported INHIBITION values for all items listed beneath this line.
1. O=C(NCc1nnc2n1C(C(=O)NC1CC1)CC2)c1ccc(Cl)cc1Cl (stereo not drawn)
2. CN1CC(C(=O)NCc2ccnc(-n3cccn3)c2)CC1=O (stereo not drawn)
3. CCOC(=O)CNC(=O)C1OC(c2ccccc2)=NN1C(C)=O (stereo not drawn)
4. CCOC(=O)NCc1nn(CCN2CCCC2)c(=O)c2ccccc12
5. O[C@H]1CN(Cc2ccc3c(c2)OCCO3)CC[C@@]12CCCO2

**A:**
1. 44.9
2. -0.7
3. -19.1
4. 48.8
5. 19.6

Hello, I would appreciate it if you could give INHIBITION for each entry below.
1. Cc1nccn1[C@@H]1CC[C@@H](N(C)S(=O)(=O)c2ccccc2F)[C@H]1O
2. O=C(c1cnc(-c2ncccn2)s1)N1CCCC1Cn1cccn1 (stereo not drawn)

**A:**
-0.05
-24.3
